assayed.system: recombinant human PSMA (rhPSMA) (Homo sapiens, UniProt Q04609)
Sequence (Q04609 whole entry): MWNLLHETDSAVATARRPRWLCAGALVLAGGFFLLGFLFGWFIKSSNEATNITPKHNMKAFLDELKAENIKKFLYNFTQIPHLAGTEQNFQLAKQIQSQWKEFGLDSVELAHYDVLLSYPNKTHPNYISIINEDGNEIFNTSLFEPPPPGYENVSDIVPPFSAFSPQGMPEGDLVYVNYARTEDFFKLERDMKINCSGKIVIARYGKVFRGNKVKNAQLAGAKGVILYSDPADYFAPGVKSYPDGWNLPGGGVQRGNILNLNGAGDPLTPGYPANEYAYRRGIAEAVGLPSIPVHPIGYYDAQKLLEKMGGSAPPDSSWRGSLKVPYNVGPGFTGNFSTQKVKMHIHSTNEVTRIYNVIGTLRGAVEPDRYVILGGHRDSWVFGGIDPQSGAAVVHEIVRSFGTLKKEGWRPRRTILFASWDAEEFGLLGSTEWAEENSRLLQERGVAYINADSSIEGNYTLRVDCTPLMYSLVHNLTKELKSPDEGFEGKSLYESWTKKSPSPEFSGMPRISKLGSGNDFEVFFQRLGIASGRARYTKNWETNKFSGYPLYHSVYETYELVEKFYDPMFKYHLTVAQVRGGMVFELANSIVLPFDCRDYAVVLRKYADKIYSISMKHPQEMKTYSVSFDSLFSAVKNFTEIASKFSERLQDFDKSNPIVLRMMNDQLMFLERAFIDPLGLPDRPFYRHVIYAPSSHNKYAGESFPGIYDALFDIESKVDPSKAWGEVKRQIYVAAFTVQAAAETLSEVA
assay.protocol: Naaladase assay (fluorescence-based Naaladase activity inhibition)
test.conditions: rhPSMA 0.4 μg/mL, substrate N-Acetyl-Asp-Glu 40 μM, 37° C. one hour
measurement.name: pIC50
One number for each entry, as −log10 of the molar value.

Worked examples follow.
O=C(O)CC[C@H](NC(=O)N[C@@H](CCCCNC(=O)[C@H](Cc1ccc2ccccc2c1)Nc1c(NC23CCC(CNC(=O)CN4CCN(CC(=O)O)CCN(CC(=O)O)CCN(CC(=O)O)CC4)(CC2)CC3)c(=O)c1=O)C(=O)O)C(=O)O [E1]    8.48
O=C(O)CC[C@H](NC(=O)N[C@@H](CCCCNC(=O)[C@H](Cc1ccc2ccccc2c1)NC(=O)[C@H]1CC[C@H](CNC(=O)CN2CCN(CC(=O)O)CCN(CC(=O)O)CCN(CC(=O)O)CC2)CC1)C(=O)O)C(=O)O [PSMA-617, reference compound]    8.62
O=C(O)CCC[C@H](NC(=O)N[C@@H](CCCCNC(=O)[C@H](Cc1c2ccccc2cc2ccccc12)Nc1c(NC23CCC(NC(=O)CN4CCN(CC(=O)O)CCN(CC(=O)O)CCN(CC(=O)O)CC4)(CC2)CC3)c(=O)c1=O)C(=O)O)C(=O)O    8.85

Give the measured pIC50 of O=C(O)CN1CCN(CC(=O)O)CCN(CC(=O)NC23CCC(Nc4c(N[C@@H](Cc5c6ccccc6cc6ccccc56)C(=O)NCCCC[C@H](NC(=O)N[C@@H](CNC(=O)C(=O)O)C(=O)O)C(=O)O)c(=O)c4=O)(CC2)CC3)CCN(CC(=O)O)CC1 .
8.80
